In this section we review reported Population Membrane Permeable-Phenotype (%) values for a set of compounds.
# System: Fibroblast
# Assay: Multiplex assay against human fibroblast
# Type: toxicity, cell-based
# Conditions: 48 h, 1 µM, compound concentration 1 uM, replicate 2
Output spec: scalar in %, unitless text.

See these solved cases before continuing.
CCc1nn2c(C)cc(C)nc2c1Cc1ccc(-c2nnc(C3CCNCC3)o2)cc1    3
C[C@H](NC(=O)CNC(=O)c1cccc(Cl)c1)c1ccccc1    4
OCCCNc1cc(-c2ccnc(Nc3cccc(Cl)c3)n2)ccn1    5

Problem: What Population Membrane Permeable-Phenotype (%) value was documented for this compound, S=C(NCCCc1c[nH]cn1)NCCCN(Cc1ccc(Cl)c(Cl)c1)c1ccc(Br)cn1 ?
Solution: 5

Problem: Same question for O=C(Nc1cc(-c2ccccc2)nn1-c1ccccc1F)c1ccc([N+](=O)[O-])cc1 please.
Solution: 5

----------
# Test system: U2OS
# Assay: Multiplex assay against U2OS
# Type: toxicity, cell-based
# Conditions: human, 48 h, 10 µM, compound concentration 10 uM, replicate 1
In this section we review reported Population Pyknosed Nuclei (%) values for a set of molecules.
Output spec: scalar in %, unitless text.

CSc1nc(NC2CCCC2)c([N+](=O)[O-])c(NC2CCCC2)n1    8
Nc1nc(-c2ccco2)c2cnn(Cc3ccccc3F)c2n1    10
N[C@](CC1c2ccccc2Oc2ccccc21)(C(=O)O)[C@H]1C[C@@H]1C(=O)O    7

Read the next record carefully.
Problem: What Population Pyknosed Nuclei (%) value was documented for this molecule, C[C@@H]1CC(=O)Nc2cccc(-c3ccc4c(c3)c(-c3cnn(C)c3)nn4C)c2N1 ?
Solution: 5

----------
# Tested on: HEK-293T
# Assay: Multiplex assay against HEK293T
# Format: toxicity, cell-based
# Conditions: human, 24 h, 10 µM, compound concentration 10 uM, replicate 1
In this section we review reported Population Normal (%) values for a set of molecules.
Output spec: scalar in %, unitless text.

Nc1nc(-c2ccco2)c2cnn(Cc3ccccc3F)c2n1    93

Problem: What Population Normal (%) value was documented for this molecule, CCC(=O)OCC(=O)[C@@]1(OC(=O)CC)[C@@H](C)C[C@H]2[C@@H]3CCC4=CC(=O)C=C[C@]4(C)[C@@]3(Cl)[C@@H](O)C[C@@]21C [BECLOMETHASONE DIPROPIONATE] ?
Solution: 88

Problem: Same question for O=C(NCCNCC(O)COc1ccc(O)cc1)N1CCOCC1.O=C(NCCNCC(O)COc1ccc(O)cc1)N1CCOCC1.O=C(O)/C=C/C(=O)O (stereo not drawn) [XAMOTEROL FUMARATE] please.
Solution: 94

----------
In this section we review reported Population Mitotic Cells (%) values for a set of compounds.
# Test system: U2OS
# Assay: Multiplex assay against U2OS
# Assay type: toxicity, cell-based
# Conditions: human, 48 h, 1 µM, compound concentration 1 uM, replicate 1
Output spec: scalar in %, unitless text.

CN1CCN2c3ccccc3Cc3ccccc3C2C1.Cl (stereo not drawn) [MIANSERIN HYDROCHLORIDE]    21

Read the next record carefully.
Problem: What Population Mitotic Cells (%) value was documented for this compound, O=c1nc2[nH]c3ccccc3nc-2c(=O)[nH]1 ?
Solution: 15

----------
# System: Fibroblast
# Assay: Multiplex assay against human fibroblast
# Assay type: toxicity, cell-based
# Conditions: 48 h, 10 µM, compound concentration 10 uM, replicate 2
Quantity measured: Population Normal (%)
# do not omit the unit; it follows the number

Problem: What Population Normal (%) value was documented for this compound, COc1cc2nc(N3CCN(C(=O)c4ccco4)CC3)nc(N)c2cc1OC.Cl [PRAZOSIN HYDROCHLORIDE] ?
Solution: 94%

Problem: Same question for COc1ccc2[nH]c(I)c(CCNC(C)=O)c2c1 [IODOMELATONIN] please.
Solution: 98%

Problem: Same question for C[C@@H]1CC(=O)Nc2cccc(-c3ccc4c(c3)c(-c3cnn(C)c3)nn4C)c2N1 please.
Solution: 95%

Problem: Same question for Cc1nn(C)c2nc(NNC(=O)Nc3cc(Cl)nc(Cl)c3)cc(C(C)C)c12 please.
Solution: 96%

Problem: Same question for COc1cc2nc(N3CCN(C(=O)COc4c(OC)cccc4C(C)C)CC3)nc(N)c2cc1OC.Cl.Cl please.
Solution: 68%

Problem: Same question for O=c1nc2[nH]c3ccccc3nc-2c(=O)[nH]1 [ALLOXAZINE] please.
Solution: 97%

Problem: Same question for COCCCN1CCC(NC(=O)c2cc(Cl)c(N)c3c2OCC3)CC1 [PRUCALOPRIDE] please.
Solution: 93%

Problem: Same question for COc1cc(C(=O)N2CC[C@@H](O)[C@@H](N)C2)cc2nc(-c3cc4ccccc4n3CC3CC3)n(C)c12.Cl please.
Solution: 95%
